# Test system: OVCAR-4 ovarian
# method-description: NCI-60 one-dose screen, 48 h (100 = growth as untreated, 0 = no growth, -100 = all killed)
# run-conditions: 10 µM
This is part of a sample that, as a whole, favours compounds with a hit. Of some 83,000 tested, about 20% had one in any assay.
Definition: the class of an entry is the range in lower band (below 70%), central band (70% to below 90%), upper band (90% or more) that contains its growth.

Previously resolved entries follow.
compound	tested-target	classification
O=C1CSC(=S)N1/N=C/c1ccc(Cl)s1	OVCAR-4 ovarian	upper band
CCOC(=O)c1sc2ncnc(Nc3ccc4c(cnn4C(=O)Nc4ccc(C)c(Cl)c4)c3)c2c1C	OVCAR-4 ovarian	upper band
Cc1ccc2nc(Cl)c(-c3nc4ccccc4o3)cc2c1	OVCAR-4 ovarian	upper band
COc1cc(-c2csc(NC(=O)Nc3ccc(Cl)c(C(F)(F)F)c3)n2)cc(OC)c1OC	OVCAR-4 ovarian	lower band
Oc1ccc(/C=N/N=C2c3ccccc3-c3ccccc32)c(O)c1	OVCAR-4 ovarian	lower band
CC(CN(C)C)Oc1ccccc1NC1=C(Cl)C(=O)C(Nc2ccccc2OC(C)CN(C)C)=C(Cl)C1=O (stereo unspecified)	OVCAR-4 ovarian	lower band
C=CCN(CC=C)C(=O)[C@H](CC)[C@@H]1CC[C@@H](C)[C@@H]([C@H](C)[C@@H](O)[C@@H](C)C(=O)[C@H](CC)C2O[C@]3(C=C[C@@H](O)[C@]4(CC[C@@](C)([C@H]5CC[C@](O)(CC)[C@H](C)O5)O4)O3)[C@H](C)C[C@@H]2C)O1 (stereo partly specified)	OVCAR-4 ovarian	lower band
COC(=O)CC[C@@H](C)[C@H]1CC[C@H]2[C@@H]3CC[C@@H]4C[C@H](O)CC[C@]4(C)[C@H]3C[C@H](O)[C@]12C	OVCAR-4 ovarian	upper band
Cc1ccc(-n2c(C)nn3c(=O)c4c5c(sc4nc23)CN(C)CC5)cc1	OVCAR-4 ovarian	upper band
COc1ccc(-c2nn(-c3cccc(Cl)c3)cc2-c2nc(N)[nH]c(=O)c2C#N)cc1	OVCAR-4 ovarian	central band

Category of CC(C)N(CCOc1cccc(-c2nc3sccn3c2-c2ccnc(S(C)(=O)=O)n2)c1)C(C)C , please.
lower band

Category of CS(=O)(=O)c1nccc(-c2c(-c3cccc(OCCN4CCOCC4)c3)nc3sccn23)n1 , please.
central band

Category of CC(C)CCN(CCC(C)C)CC(=O)Nc1ccc(S(=O)(=O)c2ccc(NC(=O)CN(CCC(C)C)CCC(C)C)cc2)cc1 , please.
central band

Category of CCN(CC)CCOc1cccc2c1C(=O)c1ccccc1C2=O , please.
central band

Category of Nc1nc(Cl)nc2c1ncn2C1O[C@H](CO)[C@@H](O)[C@@H]1F (stereo partly specified) , please.
central band

Category of Nc1ccc(/C=N/Nc2ccnc3c(O)cccc23)c2cccnc12 , please.
lower band

Category of CC(=O)Nc1ccc(S(=O)(=O)c2ccnc3cc(Cl)ccc23)cc1 , please.
central band

Category of CCn1c(CSc2nc3ccccc3c(=O)n2CCc2ccccc2)n[nH]c1=S , please.
central band

Category of COC1OC(COS(=O)OC)C(O)C(O)C1OS(=O)OC (stereo unspecified) , please.
upper band

Category of COc1cc2c3c(n([C@@H]4CCOC4)c(=O)c2cc1OC)-c1cc2c(cc1C3=O)OCO2 , please.
central band

Category of O=C1Cc2cc(CCN3CCN(c4nsc5ccccc45)CC3)c(Cl)cc2N1 , please.
central band

Category of CN(C)CCOc1ccccc1NC1=C(Cl)C(=O)C(Nc2ccccc2OCCN(C)C)=C(Cl)C1=O , please.
lower band

Category of CCOC(=O)c1cc(C(=O)c2ccc(OC)c(OC)c2)n2c1ccc1ccc3cccnc3c12 , please.
lower band

Category of CC(=O)Oc1cc(OC(C)=O)c2ccccc2c1OC(C)=O , please.
central band

Category of O=C1CCn2c1c(O)c1ccccc1c2=O , please.
upper band

Category of Cn1cnc([N+](=O)[O-])c1/C=C1\Oc2ccc(Br)cc2C1=O , please.
upper band

Category of CC(C)(C)OC(=O)CN1CCc2c(sc3ncnc(N/N=C/c4cccc5ccccc45)c23)C1 , please.
lower band
